test system: human red blood cells; experiment: Hemolysis assay with red blood cells; settings: human, 1 h, 200 μM, pH 7.2
What % Hemolysis at 200 μM was measured for each of the following?

Example entries and their recorded answers appear below.
>>> result("O=C(O)CN(CCN(CC(=O)O)CC(=O)O)CC(=O)O [EDTA, ethylenediaminetetraacetic acid, reference compound]")
"3.0%"
>>> result("Oc1c(I)cc(Cl)c2nc3ccccc3nc12 [Compound 9, 4-Chloro-2-iodo-1-hydroxyphenazine]")
"≤1%"
>>> result("Oc1ccc(I)c2nc3cc(Cl)c(Cl)cc3nc12 [Compound 12, 7,8-Dichloro-4-iodo-1-hydroxyphenazine]")
"1.4%"

--- query ---
Look up % Hemolysis at 200 μM: Oc1c(Br)cc(I)c2nc3ccccc3nc12 [Compound 8, 2-Bromo-4-iodo-1-hydroxyphenazine]
2.9%

---

What MIC was measured for each of the following?
system: MRSA-1 (methicillin-resistant Staphylococcus aureus clinical isolate); assay: MIC assay (broth microdilution, CLSI); format: cell-based; conditions: Staphylococcus aureus, MRSA, Table 11; read-out: MIC, MRSA-1
Numbers only, in µM.

Example entries and their recorded answers appear below.
>>> numericresult("Oc1c(Br)cc(I)c2nc3cc(Cl)c(Cl)cc3nc12 [Compound 14]")
0.1
>>> numericresult("Oc1ccc(I)c2nc3cc(Cl)c(Cl)cc3nc12 [Compound 12, 7,8-Dichloro-4-iodo-1-hydroxyphenazine]")
0.3
>>> numericresult("Oc1ccc(Br)c2nc3cc(Cl)c(Cl)cc3nc12 [Compound 11]")
0.39

--- query ---
Look up MIC: Oc1c(I)cc(I)c2nccnc12 [Compound 26]
1.56

---

Tested on: human red blood cells
Assay: Hemolysis assay with red blood cells
Conditions: human, 1 h, 200 μM, pH 7.2
Experimental: The hemolysis activities of select compounds of the invention were determined. […] The washing was repeated three times with the buffer. In 96-well plate, test compounds were added to the buffer from DMSO stocks. […] Then 80 μL of the supernatant was transferred to another 96-well plate, and the optical density (OD) was read at 405 nm. […] The percent of hemolysis was calculated as (OD405 of the compound−OD405 of DMSO)/(OD405 of Triton X−OD405 of the buffer). […]
endpointLabel: % Hemolysis at 200 μM (%)
Numbers only, in %.

Example entries and their recorded answers appear below.
>>> numericresult("Cc1nc2c(I)cc(I)c(O)c2nc1C")
1.2
>>> numericresult("Oc1c(Br)cc(Br)c2nccnc12")
1.8

Your task in this section: give % Hemolysis at 200 μM for each listed record.
1. Oc1ccc(Br)c2nc3cc(Cl)c(Cl)cc3nc12
2. Oc1c(I)cc(Br)c2nc3ccccc3nc12 [Compound 10, 4-Bromo-2-iodo-1-hydroxyphenazine]

2.7
1.3

---

What MBEC:MBC ratio, MRSA-2 was measured for each of the following?
test system: MRSA-2 planktonic cells and biofilms; assay: Calgary Biofilm Device (CBD) assay, MBC/MBEC; assay type: cell-based, Staphylococcus aureus; details: Table 4

>>> result("Oc1c(I)cc(I)c2nc3ccccc3nc12 [Compound 4, 2,4,-Diiodo-1-hydroxyphenazine]")
3.0

Your task in this section: give MBEC:MBC ratio, MRSA-2 for each listed record.
1. Oc1c(Cl)cc(I)c2nc3ccccc3nc12 [Compound 6, 2-Chloro-4-iodo-1-hydroxyphenazine]
2. Oc1c(Cl)cc(Cl)c2nc3ccccc3nc12 [Compound 3, 2,4-Dichloro-1-hydroxyphenazine]
3. Oc1c(I)cc(Cl)c2nc3ccccc3nc12 [Compound 9, 4-Chloro-2-iodo-1-hydroxyphenazine]

1. 8.0
2. >16.0
3. 2.7
